Tested on: cells of mouse spleen
Assay: cells
Format: cell-based, C3H/HeJ mouse
Conditions: Mus musculus, 24 h, read-out: Minimum effective concentration (interferon inducing activity)
Measured attribute: minimal effective concentration (µM)
Please reply with the bare figure in µM and do not write the unit itself.

compound=COC(=O)CCSc1nc(N)c2nc(O)n(Cc3ccccc3)c2n1 measured_attribute="minimal effective concentration" value=0.1

Query :: For CCOC(=O)Cc1nc(N)c2nc(O)n(Cc3ccccc3)c2n1 , write its minimal effective concentration.
Result :: 0.01

Query :: For Nc1nc(CC(=O)O)nc2c1nc(O)n2Cc1ccccc1 [Comparative example 8, reference compound] , write its minimal effective concentration.
Result :: 10

---

Tested on: cells of mouse spleen
Experiment: cells
Type: cell-based, C3H/HeJ mouse
Details: Mus musculus, 24 h, read-out: Minimum effective concentration (interferon inducing activity)
minimal effective concentration overview
Please reply with the bare figure in µM and do not write the unit itself.

These solved cases illustrate the format of a correct answer.
compound=COC(=O)CSc1nc(N)c2nc(O)n(Cc3ccccc3)c2n1 value=0.01
compound=Nc1nc(SCC(=O)N2CCCCC2)nc2c1nc(O)n2Cc1ccccc1 value=0.1
compound=COC(=O)OCCNc1nc(N)c2nc(O)n(Cc3ccc(C)nc3)c2n1 value=0.1
compound="CCOC(=O)C(C)Sc1nc(N)c2nc(O)n(Cc3ccccc3)c2n1 (centres unmarked)" value=0.1

Moving on to another compound below.
Query :: For CCCCOc1nc(N)c2nc(O)n(Cc3ccc(C(=O)OC(C)C)o3)c2n1 , write its minimal effective concentration.
Result :: 0.003

---

System: cells of mouse spleen
Assay: cells
Type: cell-based, C3H/HeJ mouse
Details: Mus musculus, 24 h, read-out: Minimum effective concentration (interferon inducing activity)
minimal effective concentration overview

These solved cases illustrate the format of a correct answer.
structure=CCCCOc1nc(N)c2nc(O)n(Cc3cccc(C(=O)OCCN(C)C)c3)c2n1 experimental_system="cells of mouse spleen" measured_attribute="minimal effective concentration" value="< 0.001 µM"
structure=CCCCOc1nc(N)c2[nH]c(=O)n(Cc3cccc(C(=O)OC)c3)c2n1 experimental_system="cells of mouse spleen" measured_attribute="minimal effective concentration" value="< 0.001 µM"

Query :: For CCCCOc1nc(N)c2nc(O)n(Cc3ccc(N4CCC(C(=O)OCC)CC4)nc3)c2n1 , write its minimal effective concentration.
Result :: < 0.001 µM

---

Residual rate overview
Assay: Metabolic stability on liver S9 of rat
Details: rat liver S9, test compound 1 μM, 37° C.
Please reply with the bare figure in % and do not write the unit itself.

These solved cases illustrate the format of a correct answer.
structure=CCCCOc1nc(N)c2nc(O)n(Cc3ccc(C(=O)OC)c(C(=O)OC)c3)c2n1 value=3
structure=CCOC(=O)CCCCSc1nc(N)c2nc(O)n(Cc3ccccc3)c2n1 value=3

Moving on to another molecule below.
Query :: For CCCCOC(=O)Cc1nc(N)c2nc(O)n(Cc3ccccc3)c2n1 , write its Residual rate.
Result :: 3

---

Tested on: cells of mouse spleen
Test: cells
Type: cell-based, C3H/HeJ mouse
Conditions: Mus musculus, 24 h, read-out: Minimum effective concentration (interferon inducing activity)
minimal effective concentration overview
Please reply with the bare figure in µM and do not write the unit itself.

molecule=CCCCOc1nc(N)c2nc(O)n(Cc3ccc(CC(=O)OC)cc3)c2n1 value=0.003
molecule="Nc1nc(SCCC(=O)O)nc2c1nc(O)n2Cc1ccccc1 [Comparative example 13, reference compound]" value=10
molecule=COC(=O)Cc1nc(N)c2nc(O)n(Cc3ccccc3)c2n1 value=0.01

Query :: For CCCCOc1nc(N)c2nc(O)n(Cc3ccc(C(=O)OC)o3)c2n1 , write its minimal effective concentration.
Result :: 0.003

Query :: For CCCCOc1nc(N)c2nc(O)n(Cc3ccc(CC(=O)O)cc3)c2n1 [Comparative example 6, reference compound] , write its minimal effective concentration.
Result :: 0.03
